# subject of test: Delta-type opioid receptor (Rattus norvegicus, UniProt P33533)
# Sequence (P33533 whole entry): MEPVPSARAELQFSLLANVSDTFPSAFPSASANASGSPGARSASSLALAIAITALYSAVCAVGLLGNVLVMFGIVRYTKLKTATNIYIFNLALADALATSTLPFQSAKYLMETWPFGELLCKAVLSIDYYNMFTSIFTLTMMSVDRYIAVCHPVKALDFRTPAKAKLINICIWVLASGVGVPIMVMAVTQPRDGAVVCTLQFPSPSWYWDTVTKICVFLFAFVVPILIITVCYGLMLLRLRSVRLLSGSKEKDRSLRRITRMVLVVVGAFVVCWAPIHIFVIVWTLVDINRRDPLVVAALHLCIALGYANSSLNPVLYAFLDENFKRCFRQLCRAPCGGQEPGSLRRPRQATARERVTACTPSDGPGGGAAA
# assay procedure: Inhibition of radioligand [3H]DADLE binding to rat brain delta receptor
pKi: −log10 of the molar value.
pKi overview
measured property: pKi

1. CN1CCC2(c3cccc(O)c3)CC(=O)/C(=C/c3ccc(Cl)c(Cl)c3)C1C2 (centres undefined) ... 6.62
2. CN1CC[C@@]2(c3cccc(O)c3)CC(=O)/C(=C/c3ccccc3)[C@@H]1C2 ... 5.70
3. CN1CC[C@@]2(c3cccc(O)c3)CC(=O)/C(=C/c3ccc(Cl)c(Cl)c3)[C@H]1C2 ... 6.57

====

# subject of test: Glutamate NMDA receptor
# assay procedure: Inhibition of radioligand [3H]TCP binding to PCP site in rat brain
# Assay type: tissue-based
measured property: Ki

1) COc1cccc(C23CCN(C)C(C2)/C(=C\c2ccccc2)C(=O)C3)c1 (configuration not stated) ... > 50 µM
2) CN1CCC2(c3cccc(O)c3)CC(=O)/C(=C/c3ccc(Cl)c(Cl)c3)C1C2 (configuration not stated) ... > 100 µM
3) CN1CC[C@@]2(c3cccc(O)c3)CC(=O)/C(=C/c3ccc(Cl)c(Cl)c3)[C@@H]1C2 ... > 100 µM
4) CN1CC[C@@]2(c3cccc(O)c3)CC(=O)/C(=C/c3ccccc3)[C@@H]1C2 ... > 100 µM
5) CN1CC[C@@]2(c3cccc(O)c3)CC(=O)/C(=C/c3ccc(Cl)c(Cl)c3)[C@H]1C2 ... > 100 µM
6) CN1CCC2(c3cccc(O)c3)CC(=O)/C(=C/c3ccccc3)C1C2 (configuration not stated) ... > 100 µM
7) CN1CC[C@]2(c3cccc(O)c3)CC(=O)/C(=C/c3ccccc3)[C@H]1C2 ... ~100 µM
